Biological target: EGFR (Homo sapiens)
Construct: Kinases are expressed as either kinase domains or full length constructs; made in house
Sequence (P00533 25-1210, species assumed): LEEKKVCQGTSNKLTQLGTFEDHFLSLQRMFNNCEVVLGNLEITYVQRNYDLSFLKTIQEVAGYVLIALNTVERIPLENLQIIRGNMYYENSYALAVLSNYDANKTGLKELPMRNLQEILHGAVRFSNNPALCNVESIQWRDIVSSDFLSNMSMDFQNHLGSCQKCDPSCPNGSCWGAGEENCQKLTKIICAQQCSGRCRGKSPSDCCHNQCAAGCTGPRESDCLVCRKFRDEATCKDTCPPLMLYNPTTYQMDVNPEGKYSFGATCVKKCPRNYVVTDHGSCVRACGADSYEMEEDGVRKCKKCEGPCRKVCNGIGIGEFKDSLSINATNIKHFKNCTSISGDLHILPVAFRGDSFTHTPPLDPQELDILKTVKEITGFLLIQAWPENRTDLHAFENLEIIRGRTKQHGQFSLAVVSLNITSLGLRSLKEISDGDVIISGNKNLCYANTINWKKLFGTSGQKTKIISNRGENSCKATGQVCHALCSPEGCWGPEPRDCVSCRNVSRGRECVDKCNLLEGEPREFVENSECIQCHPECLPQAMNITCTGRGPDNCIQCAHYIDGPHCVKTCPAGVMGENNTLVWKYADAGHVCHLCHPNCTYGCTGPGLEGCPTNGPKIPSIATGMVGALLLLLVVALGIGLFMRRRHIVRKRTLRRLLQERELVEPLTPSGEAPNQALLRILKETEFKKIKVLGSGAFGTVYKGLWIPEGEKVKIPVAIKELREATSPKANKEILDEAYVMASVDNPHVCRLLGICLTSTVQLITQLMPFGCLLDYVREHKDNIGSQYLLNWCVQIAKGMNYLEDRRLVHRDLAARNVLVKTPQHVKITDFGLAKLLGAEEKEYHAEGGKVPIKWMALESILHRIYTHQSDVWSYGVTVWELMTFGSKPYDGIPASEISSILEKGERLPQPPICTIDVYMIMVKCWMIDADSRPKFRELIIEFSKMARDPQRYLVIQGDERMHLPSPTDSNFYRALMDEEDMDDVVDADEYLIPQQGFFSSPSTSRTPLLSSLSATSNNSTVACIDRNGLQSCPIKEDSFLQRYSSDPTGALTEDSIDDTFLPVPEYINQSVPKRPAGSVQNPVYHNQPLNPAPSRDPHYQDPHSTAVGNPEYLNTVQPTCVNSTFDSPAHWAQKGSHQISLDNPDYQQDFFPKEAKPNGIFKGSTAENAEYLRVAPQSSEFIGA
Assay: Kinase inhibition assay (33P transfer), EGFR
Assay type: biochemical
Conditions: Table 2, kinase inhibition class; read-out: EGFR-1
pIC50: −log10 of the molar value.
Reported pIC50 values for the following molecules.

Sure, the documented pIC50 for COc1cc(Nc2ncnc(N3CCCC3)n2)cc(OC)c1OC [Compound 181] is < 4.87

Sure, the documented pIC50 for COc1ccc(Nc2ncnc(Nc3ccc(OCc4ccccc4)cc3)n2)cc1O [Compound 171] is > 6.02

Sure, the documented pIC50 for OCc1ccc(Nc2ncnc(Nc3cc(-c4ccco4)n[nH]3)n2)cc1 [Compound 430] is 5.16 to 5.94

New cases:
Sure, the documented pIC50 for O=c1[nH]c2ccccc2n1-c1ncnc(Nc2ccc(O)cc2)n1 [Compound 682] is 5.13 to 5.90

Sure, the documented pIC50 for COC(=O)Cc1cccc(Nc2ncnc(-n3c(NCc4ccccc4)nc4ccccc43)n2)c1 [Compound 545] is 5.29 to 6.07

Sure, the documented pIC50 for COc1cc(Nc2ncnc(-c3cccnc3NCCCN)n2)cc(OC)c1OC [Compound 1078] is < 4.96
